ASSAYED SYSTEM: pooled human IgG (human IgG1, 2, 3 and 4)
As shown below, each of these proteins has a reported Enzyme Activity Endpoint Assay (purified): scIgG value.
Reply with just the number (in ng/µL).

| PROTEIN | MEASUREMENT UNIT | OBSERVED |
| --- | --- | --- |
| PRT-440 (protein) MSQTEDSESLQRLRDIEDFQAEKKKQNVVYTKWLDGVDVKDHDFRKIVDGNIAYYATPLLNGRGFYDINKDFNRDSDKCAAAVAANMFHYWLDRNRDNVDRFLRQNPEKHGIIELPDGQLKLSDFLNTYESDDGYRDKSKLFDFISNNFNGPVWTDKLLDNYINGYAYNYKYGRTIEDPTKNTSKINFFKEVFNEKILTNNHSIRNQNELSVLLSEALYTGKAIGLSYGPAGLRHSLGHIISVWGADLDADGNVVAIYVTDSDDKKLTIGDERVGLKRYKISTDDEGRLRLTAYEETHNTGGQIRGLWTLDTGKQAWADYFDKTEQTGTDQAEQ | ng/µL | 245 |

Shifting focus to the protein that follows.
If you can, please state the reported Enzyme Activity Endpoint Assay (purified): scIgG value of PRT-437 (protein) MSQTEDSESLQRLRDIEDFQAEKKKQNVVYTKWLDGVDVKDHDFRKIVDGNEAYYATPLLNGRGFYDINKDFNRDSDKCAAAVAANMFHYWLDRNRDNVDRFLRQNPEKHGIIELPDGQLKLSDFLNTYESDDGYRDKSKLFDFISNNFNGPVWTDKLLDNYINGYAYNYKYGRTIEDPTKNTSKINFFKEVFNEKILTNNHSIRNQNEFSVLLSEALYTGKAIGLSYGPAGLRHSLGHIISVWGADLDADGNVVAIYVTDSDDKKLTIGDERVGLKRYKISTDDEGRLRLTAYEETHNTGGQIRGLWTLDTGKQAWADYFDKTEQTGTDQAEQ . 263
